Values from ChEMBL document CHEMBL1949521

# Experimental details: Volume of distribution at steady state in rat at 2 mg/kg, iv
# Type: ADME, organism-based
# Parameters: dose 2 mg/kg, route intravenous
# Condition parameters: in vivo, read-out: Vdss
Endpoint: Vd (L/kg)
Report the figure in L/kg without appending any unit label.

Incoming: Recorded Vd for CNC(=O)[C@H]1CC[C@H](Nc2ncc3nc(Nc4c(F)cc(F)cc4F)n([C@H]4CCOC4)c3n2)CC1 , please?
Outgoing: 2.5

Incoming: Check O[C@H]1CC[C@H](Nc2ncc3nc(Nc4c(F)cc(F)cc4F)n([C@H]4CCOC4)c3n2)CC1 too.
Outgoing: 1.7

----------
# Experimental details: Clearance in cynomolgus monkey at 1 mg/kg, iv
# Assay type: ADME, organism-based, Macaca fascicularis
# Design: dose 1 mg/kg, route intravenous
# Condition parameters: in vivo
Endpoint: clearance (mL/min/kg)
Could you give me the number in mL/min/kg? Just the number is fine.

Incoming: Give its clearance value. Item: O[C@H]1CC[C@H](Nc2ncc3nc(Nc4c(F)cc(F)cc4F)n([C@H]4CCOC4)c3n2)CC1 [TANZISERTIB]
Outgoing: 2.9

Incoming: Same again, this time with CNC(=O)[C@H]1CC[C@H](Nc2ncc3nc(Nc4c(F)cc(F)cc4F)n([C@H]4CCOC4)c3n2)CC1
Outgoing: 7.1
